Target: T1, monomeric human CSF1R ectodomain protein (human, UniProt P07333 20-517)
T1 construct: also called biotinylated monomeric human CSF1R
Assay: SPR Biacore, IgG captured, monomeric CSF1R analyte
METRIC: koff (s⁻¹)
Numeric only. Scale: s⁻¹

| BINDER | RESULT_NUMBER |
| --- | --- |
| 30E06 (antibody, human IgG4, V domains shown, Library-derived clone; tested as human IgG4(S228P) / human Ckappa IgG; also called 30E6; mAb-3) VH: QVQLVQSGAEVKKPGSSVKVSCKASGYTFTSYYMIWVRQAPGQGLEWMGDINPYNGGTTYAQKFQGRVTITADESTSTAYMELSSLRSEDTAVYYCAREGPYFSNLYVMDYWGQGTLVTVSS VL: EIVLTQSPATLSLSPGERATLSCRASQSVSYEGENYLAWYQQKPGQAPRLLIYAASNLATGIPARFSGSGSGTDFTLTISSLEPEDFAVYYCQLSNEDLLTFGGGTKVEIK | 0.00019 |

Alright, here's another binder for you.
Consider the binder shown here: 29A03 (antibody, human IgG4, V domains shown, Library-derived clone, tested as human IgG4(S228P)/Ckappa IgG; framework residue limits counted on the grafts) VH: QVQLVQSGAEVKKPGSSVKVSCKASGYTFSSNYMIWVRQAPGQGLEWMGDINPYNGGATYNQKFQGRVTITADESTSTAYMELSSLRSEDTAVYYCAREPPYFSNLYVMDYWGQGTLVTVSS VL: EIVLTQSPATLSLSPGERATLSCRASQSVEYEGENYLNWYQQKPGQAPRLLIYAASNRATGIPARFSGSGSGTDFTLTISSLEPEDFAVYYCQLSNQDLLTFGGGTKVEIK What is its recorded koff?
0.0006
